Test system: SNB-78
Experiment: NCI tumour cell line growth inhibition, 48 h
Active and inactive are the calls of the source. Rule as the data show it: active = GI50 up to about 1.1 µM and inactive = higher.
QUANTITY_KIND: GI50

Endpoint output: GI50 of COc1cccc2nc3cc(C)c(C)cc3nc12 . Value?
> 100 µM (inactive)

Quick check: GI50 of COC(=O)c1cc2c3ccccc3n(C(C)=O)c2cn1 ?
> 100 µM (inactive)

Return reported GI50; argument: CC1=CCC2(C#N)CCC1C2=O (stereo not drawn)
> 100 µM (inactive)

Give its GI50 value. Item: CC(C)C(NCc1c2ccccc2[n+](C)c2ccccc12)C(=O)O (stereo not drawn)
5.73 µM (inactive)

Give its GI50 value. Item: CC(/C=N/N=C(N)N)=N\N=C(N)N
13.6 µM (inactive)

For CC(=O)NC(CCCN)C(=O)NCc1ccccc1 (stereo not drawn) , what is its reported GI50?
> 100 µM (inactive)

Could you tell me which GI50 is on file for CC(=O)OCC1OC(N2C(=O)/C(=N\NC(N)=S)c3ccc([N+](=O)[O-])cc32)C(OC(C)=O)C1OC(C)=O (stereo not drawn) ?
33.3 µM (inactive)

# input molecule: CCOC(=O)/C(O)=C/c1cc(OC)cc(=O)o1 ; wanted: its GI50
> 100 µM (inactive)

Can you look up the measured GI50 of CS/C(c1ccccc1)=[N+](\[O-])Cc1ccccc1 for me?
> 100 µM (inactive)

Which GI50 reading was recorded for the molecule COC(=O)CC(=O)NCC1=CCC(=O)CC1 ?
> 100 µM (inactive)

So what's the measured GI50 for this one? [O-][S+](Cc1ccccn1)c1nc2ccccc2nc1-c1ccccc1 (stereo not drawn)
21.2 µM (inactive)

Name the recorded GI50 for Nc1nnc2nc(CC(=O)/C=C/c3ccccc3)c(=O)[nH]n12 .
> 100 µM (inactive)

Entry CN(C)C(=O)Nc1c([N+](=O)[O-])cc(C(F)(F)F)cc1[N+](=O)[O-] : reported GI50 = ?
33.5 µM (inactive)

Report GI50 for NS(=O)(=O)c1ccc(NC(=O)COC(=O)c2cccc3c(=O)c4ccccc4[nH]c23)cc1 please.
17.4 µM (inactive)

Which measured GI50 value corresponds to Cn1c(=O)c(NC(=O)C(Cl)(Cl)Cl)nc2ccccc21 ?
> 100 µM (inactive)

Bench note: what GI50 did CC1(CO)C(=O)OC12CCCCC2 (stereo not drawn) show?
> 100 µM (inactive)

Request the reported GI50 associated with N#CC(N)(C(=O)C(=O)NCCCNC(=O)C(=O)C(N)(C#N)c1ccc(Cl)cc1)c1ccc(Cl)cc1 (stereo not drawn)
> 100 µM (inactive)

Quick check: GI50 of CC(=O)C1C(=O)NC(=O)C1=O (stereo not drawn) ?
> 100 µM (inactive)

Using the record for CC(C(=O)c1ccc(Cl)cc1)/C(=N/NC(=O)NN)C(=O)Nc1cccc(C(F)(F)F)c1 (stereo not drawn) , report its GI50.
> 100 µM (inactive)

For CC1=NN(C(=O)c2cc(Cl)cc([N+](=O)[O-])c2)C(=O)C1/N=N/c1ccccc1C(=O)O (stereo not drawn) , what is its reported GI50?
> 100 µM (inactive)

For O=C(O)CCSC(=S)Nc1cccc(F)c1 , what is its reported GI50?
97.1 µM (inactive)

Need GI50 of Nc1nc2ncn(CC(O)COC(=O)c3ccccc3)c2c(=O)[nH]1 (stereo not drawn) , thanks.
48.3 µM (inactive)

Which measured GI50 value corresponds to CCC(C)COC(=O)c1ccc(/N=C\c2ccc(/C=N/c3ccc(C(=O)OCC(C)CC)cc3)cc2)cc1 (stereo not drawn) ?
> 100 µM (inactive)
